Record form. Attribute: kcat. Fill in for each entry.
Substrate: O=[N+]([O-])c1ccc(OP(=O)(O)O)cc1
Test: chromogenic phosphatase assay, A400
Format: biochemical, Thermosynechococcus vestitus
Details: 50 mM Tris-HCl pH 8.3, 50 mM NaCl, 1 mM DTT, 2 mM MnCl2, 30 °C, pNPP 0.1-10 mM
Answers are plain numbers, in s⁻¹.

>  <protein>
tPphA (Thermosynechococcus vestitus BP-1) (protein) MDVAGLTDCGLIRKSNQDAFYIDEKHQRFFIVADGMGGHAGGEEASRLAVDHIRQYLETHLEDLQHDPVTLLRQAFLAANHAIVEQQRQNSARADMGTTAVVILLDEKGDRAWCAHVGDSRIYRWRKDQLQQITSDHTWIAQAVQLGSLTIEQARQHPWRHVLSQCLGREDLSQIDIQPIDLEPGDRLLLCSDGLTEELTDDVISIYLSEPNVQKAAAALVDAAKTHGGRDNVTVVVISV

>  <unitOfMeasure>
s⁻¹

>  <result>
2.25

$$$$

Go through the list and state kcat for each entry.
1. tPphA (Thermosynechococcus vestitus BP-1; R13S) (protein) MDVAGLTDCGLISKSNQDAFYIDEKHQRFFIVADGMGGHAGGEEASRLAVDHIRQYLETHLEDLQHDPVTLLRQAFLAANHAIVEQQRQNSARADMGTTAVVILLDEKGDRAWCAHVGDSRIYRWRKDQLQQITSDHTWIAQAVQLGSLTIEQARQHPWRHVLSQCLGREDLSQIDIQPIDLEPGDRLLLCSDGLTEELTDDVISIYLSEPNVQKAAAALVDAAKTHGGRDNVTVVVISV
2. tPphA (Thermosynechococcus vestitus BP-1; R13Q) (protein) MDVAGLTDCGLIQKSNQDAFYIDEKHQRFFIVADGMGGHAGGEEASRLAVDHIRQYLETHLEDLQHDPVTLLRQAFLAANHAIVEQQRQNSARADMGTTAVVILLDEKGDRAWCAHVGDSRIYRWRKDQLQQITSDHTWIAQAVQLGSLTIEQARQHPWRHVLSQCLGREDLSQIDIQPIDLEPGDRLLLCSDGLTEELTDDVISIYLSEPNVQKAAAALVDAAKTHGGRDNVTVVVISV

1.06
0.5
